These measurements were taken from the Human Domainome abundance scans (Beltran et al. 2025).

B1: Androgen receptor, residues 557 to 632; numbered along this chain, P10275 (parent)
chain: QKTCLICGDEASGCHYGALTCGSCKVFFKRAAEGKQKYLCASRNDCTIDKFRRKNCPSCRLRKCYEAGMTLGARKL

Variants of: B1
Assay remarks: abundance fitness (aPCA) (normalised: wild type 0, dead -1); higher = more abundant; growth selection in yeast, the domain comes from the species named
Particulars: Homo sapiens
Give yes (1) when the value for abundance fitness is at least -0.2. Give no (0) when it is less.

Solved entries:
Mutant designation | Answer label
Y16R | no (0)
Y16G | no (0)
S58E | yes (1)
S58L | no (0)

# bool: abundance fitness of V26F >= -0.2
yes (1)

# bool: abundance fitness of Y38R >= -0.2
no (0)

# bool: abundance fitness of G22Q >= -0.2
yes (1)

# bool: abundance fitness of A31C >= -0.2
yes (1)
